For each record, write down the corresponding Optical Density (OD).
biological target: chimeric CD1a pool B protein [human CD1a lipid binding domain, mouse CD1d Ig domain] (human; mouse, UniProt P06126 18-201; P11609 205-297, limits assumed); assay: ELISA, 31.6 µg/ml antibody
Sequence (P06126 other isoform, or with tags, fused parts or gaps mutant limits assumed): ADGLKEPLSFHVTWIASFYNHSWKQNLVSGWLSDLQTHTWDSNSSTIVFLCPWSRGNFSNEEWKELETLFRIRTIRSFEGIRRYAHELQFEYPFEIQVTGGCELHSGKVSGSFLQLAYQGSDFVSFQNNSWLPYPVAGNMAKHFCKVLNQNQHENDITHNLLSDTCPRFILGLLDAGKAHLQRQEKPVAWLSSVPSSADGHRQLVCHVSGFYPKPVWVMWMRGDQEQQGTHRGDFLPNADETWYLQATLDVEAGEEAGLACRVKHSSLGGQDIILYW
One number for each entry, in OD.

Consider the worked cases shown below.
[[record]]
binder = "110 (VR12112) (antibody, V domains shown, also called OX110; antibody 110) VH: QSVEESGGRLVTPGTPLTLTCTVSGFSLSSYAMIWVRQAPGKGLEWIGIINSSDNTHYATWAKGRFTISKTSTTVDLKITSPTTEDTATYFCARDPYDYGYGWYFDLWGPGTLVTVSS VL: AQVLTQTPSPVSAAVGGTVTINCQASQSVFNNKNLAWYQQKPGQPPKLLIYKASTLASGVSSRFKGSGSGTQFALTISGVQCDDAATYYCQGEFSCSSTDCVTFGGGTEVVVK"
experimental_result = 1.4

[[record]]
binder = "77A (VR11851) (antibody, V domains shown, also called OX77a; antibody 77a) VH: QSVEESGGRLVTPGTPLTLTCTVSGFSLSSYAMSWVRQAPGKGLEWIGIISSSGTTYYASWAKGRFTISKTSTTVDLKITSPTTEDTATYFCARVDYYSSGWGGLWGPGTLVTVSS VL: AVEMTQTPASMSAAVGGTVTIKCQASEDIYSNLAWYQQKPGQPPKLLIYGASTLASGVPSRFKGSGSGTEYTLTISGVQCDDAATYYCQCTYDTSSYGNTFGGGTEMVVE"
experimental_result = 1.33

[[record]]
binder = "116 (VR12117) (antibody, V domains shown, also called OX116) VH: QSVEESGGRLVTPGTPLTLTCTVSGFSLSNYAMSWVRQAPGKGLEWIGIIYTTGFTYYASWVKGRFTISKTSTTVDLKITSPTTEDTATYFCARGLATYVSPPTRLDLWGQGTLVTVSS VL: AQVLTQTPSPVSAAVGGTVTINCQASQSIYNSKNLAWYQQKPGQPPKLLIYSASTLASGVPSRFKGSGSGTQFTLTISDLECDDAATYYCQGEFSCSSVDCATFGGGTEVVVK"
experimental_result = 1.35


Let's switch to this binder now.
**Query** What does the data say about its Optical Density (OD)? Entry: 111 (VR12113) (antibody, V domains shown, also called OX111) VH: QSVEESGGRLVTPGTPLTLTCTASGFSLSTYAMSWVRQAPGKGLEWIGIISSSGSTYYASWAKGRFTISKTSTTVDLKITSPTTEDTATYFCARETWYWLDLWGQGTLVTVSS VL: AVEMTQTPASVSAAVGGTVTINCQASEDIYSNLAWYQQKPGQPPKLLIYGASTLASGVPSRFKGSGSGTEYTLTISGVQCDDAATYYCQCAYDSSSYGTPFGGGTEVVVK
**Result** 1.35
